# Test system: K-562 leukemia growth, % test/control
# Assay Protocol: Anticancer human tumor K-562 cell line growth inhibition;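 also: spheroids exposed to compounds for 7 days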
# Experimental Parameters: curve of first compound; second compound 3.16 µM; spheroids with HUVEC and MSC
Recorded Metric: IC50

Consider the worked cases shown below.
CCc1c2c(nc3ccc(O)cc13)-c1cc3c(c(=O)n1C2)COC(=O)[C@]3(O)CC + NC1CC1c1ccc(-c2cccc(O)c2)cc1 :: < 0.000949 µM
CCN(c1cc(-c2ccc(CN3CCOCC3)cc2)cc(C(=O)NCc2c(C)cc(C)[nH]c2=O)c1C)C1CCOCC1 + NC1CC1c1ccc(-c2cccc(O)c2)cc1 :: 1.65 µM

For the record Nc1ncn(C2CC(O)C(CO)O2)c(=O)n1 (centres undefined) + NC1CC1c1ccc(-c2cccc(O)c2)cc1 , what value of IC50 is listed for K-562 leukemia growth, % test/control? 0.772 µM

Now try NS(=O)(=O)OCC1CC(n2ccc3c(NC4CCc5ccccc54)ncnc32)CC1O (centres undefined) + NC1CCC(NC2CC2c2ccccc2)CC1 . 0.0109 µM

* * *

Some compounds, each annotated with its measured log10 of IC50.
# Test system: K-562 leukemia growth, % test/control
# Assay Protocol: Anticancer human tumor K-562 cell line growth inhibition;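 also: spheroids exposed to compounds for 7 days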
# Experimental Parameters: curve of first compound; second compound 3.16 µM; spheroids with HUVEC and MSC
On a log10 scale: recorded IC50, unit nM.

Consider the worked cases shown below.
O=C(C=Cc1cccc(S(=O)(=O)Nc2ccccc2)c1)NO + NC1CC1c1ccc(-c2cccc(O)c2)cc1 :: 2.33
Nc1ncn(C2CC(O)C(CO)S2)c(=O)n1 (configuration not stated) + NC1CCC(NC2CC2c2ccccc2)CC1 :: 2.13
COc1cc(C2c3cc4c(cc3C(OC3OC5COC(C)OC5C(O)C3O)C3COC(=O)C23)OCO4)cc(OC)c1O (configuration not stated) + NC1CCC(NC2CC2c2ccccc2)CC1 :: 1.44

Here's the next entry for you.
For the record CC(C)CC(NC(=O)C(Cc1ccccc1)NC(=O)c1cnccn1)B(O)O (configuration not stated) + NC1CCC(NC2CC2c2ccccc2)CC1 , what value of log10 of IC50 is listed for K-562 leukemia growth, % test/control? 0.25

* * *

# System: K-562 leukemia growth, % test/control
# Assay Protocol: Anticancer human tumor K-562 cell line growth inhibition; active means viability on the fitted dose curve at most 10% of control; inactive means the rest;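 also: spheroids exposed to compounds for 7 days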
# Experimental Parameters: second compound 1 µM; first compound 0.949 µM; spheroids with HUVEC and MSC
Return exactly one item of 1.0 = active, 0.0 = inactive

Below, 8 molecules whose answers are already recorded.
NS(=O)(=O)OCC1CC(n2ccc3c(NC4CCc5ccccc54)ncnc32)CC1O (stereo not given) + NC1CC1c1ccc(-c2cccc(O)c2)cc1 :: 0.0
Nc1ccccc1NC(=O)c1ccc(CNC(=O)OCc2cccnc2)cc1 + NC1CCC(NC2CC2c2ccccc2)CC1 :: 1.0
NS(=O)(=O)OCC1CC(n2ccc3c(NC4CCc5ccccc54)ncnc32)CC1O (stereo not given) + NC1CCC(NC2CC2c2ccccc2)CC1 :: 0.0
CCN(c1cc(-c2ccc(CN3CCOCC3)cc2)cc(C(=O)NCc2c(C)cc(C)[nH]c2=O)c1C)C1CCOCC1 + NC1CCC(NC2CC2c2ccccc2)CC1 :: 0.0
CCN(c1cc(-c2ccc(CN3CCOCC3)cc2)cc(C(=O)NCc2c(C)cc(C)[nH]c2=O)c1C)C1CCOCC1 + NC1CC1c1ccc(-c2cccc(O)c2)cc1 :: 0.0
COc1cc(C2c3cc4c(cc3C(OC3OC5COC(C)OC5C(O)C3O)C3COC(=O)C23)OCO4)cc(OC)c1O (stereo not given) + NC1CC1c1ccc(-c2cccc(O)c2)cc1 :: 1.0
O=C(C=Cc1cccc(S(=O)(=O)Nc2ccccc2)c1)NO + NC1CCC(NC2CC2c2ccccc2)CC1 :: 1.0
Nc1ccccc1NC(=O)c1ccc(CNC(=O)OCc2cccnc2)cc1 + NC1CC1c1ccc(-c2cccc(O)c2)cc1 :: 1.0

State the result this test recorded for COc1cc(C2c3cc4c(cc3C(OC3OC5COC(C)OC5C(O)C3O)C3COC(=O)C23)OCO4)cc(OC)c1O (stereo not given) + NC1CCC(NC2CC2c2ccccc2)CC1 . 0.0

Now try O=C(C=Cc1cccc(S(=O)(=O)Nc2ccccc2)c1)NO + NC1CC1c1ccc(-c2cccc(O)c2)cc1 . 0.0
